assay: Intrinsic clearance in human liver microsomes; assay type: ADME, Microsome
MEASURED QUANTITY: CLint scaled (mL/min/kg)

CN(C)[C@H]1CCN(c2ccc(-n3ncc4cc(-c5ccc(C(F)(F)F)cc5)n(C)c4c3=O)cn2)C1 = 48

P = CN[C@@H]1CCN(c2ccc(-n3ncc4cc(-c5ccc(OC)cc5)sc4c3=O)cn2)C1
Q = CN(C)[C@H]1CCN(c2ccc(-n3ncc4cc(-c5ccc(C(F)(F)F)cc5)sc4c3=O)cn2)C1
R = CN[C@H]1CCN(c2ccc(-n3ncc4cc(-c5ccc(F)cc5)sc4c3=O)cn2)C1
S = CN[C@@H]1CCN(c2ccc(-n3ncc4cc(-c5ccc(Cl)cc5)sc4c3=O)cn2)C1
Data request: Put these in order: smallest CLint scaled first, largest last. Reply with the item labels sorted in the order that was asked for.
Data returned: S, R, Q, P

###

test: Brain concentration in Sprague-Dawley rat at 10 mg/kg, po after 1 hour; type: ADME, organism-based; design: dose 10 mg/kg, route oral; conditions: read-out: Drug uptake
MEASURED QUANTITY: concentration at 1 h (ng/g)

1 = CN[C@H]1CCN(c2ccc(-n3ncc4cc(-c5ccc(Cl)cc5)ccc4c3=O)cn2)C1
2 = CN[C@@H]1CCN(c2ccc(-n3ncc4cc(-c5ccc(C(F)(F)F)cc5)sc4c3=O)cn2)C1
Data request: // pick min by concentration at 1 h: 1 , 2 // caller expects the label of the chosen entry
Data returned: 1
(1: 94 ng/g, 2: 190 ng/g)

###

target: Melanin-concentrating hormone receptor 1 (Rattus norvegicus, UniProt P97639); test: Binding affinity to chimeric rat/human MCH1R stably expressed in HEK293 cells
Sequence (P97639 whole entry, looked up): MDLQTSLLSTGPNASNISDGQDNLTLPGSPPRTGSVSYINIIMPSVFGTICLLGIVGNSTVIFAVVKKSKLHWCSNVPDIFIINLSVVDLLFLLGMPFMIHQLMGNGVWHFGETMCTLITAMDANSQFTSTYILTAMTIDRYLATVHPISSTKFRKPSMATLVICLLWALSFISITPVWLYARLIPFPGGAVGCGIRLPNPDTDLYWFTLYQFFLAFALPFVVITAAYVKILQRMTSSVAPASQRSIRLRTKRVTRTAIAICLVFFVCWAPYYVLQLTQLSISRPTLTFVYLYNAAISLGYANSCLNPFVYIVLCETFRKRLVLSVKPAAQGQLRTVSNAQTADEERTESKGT
MEASURED QUANTITY: Ki (nM)

Here are 8 molecules together with their reported answers.
CN[C@@H]1CCN(c2ccc(-n3ncc4cc(-c5ccc(F)cc5)sc4c3=O)cn2)C1 = 2.5
CN(C)[C@H]1CCN(c2ccc(-n3ncc4cc(-c5ccc(C(F)(F)F)cc5)oc4c3=O)cn2)C1 = 21
CN[C@@H]1CCN(c2ccc(-n3ncc4cc(-c5ccc(Cl)cc5)sc4c3=O)cn2)C1 = 1.9
CN[C@@H]1CCN(c2ccc(-n3ncc4cc(-c5ccc(OC)cc5)sc4c3=O)cn2)C1 = 1.3
CN[C@H]1CCN(c2ccc(-n3ncc4cc(-c5ccc(OC)cc5C)ccc4c3=O)cn2)C1 = 11
CN(C)[C@H]1CCN(c2ccc(-n3ncc4cc(-c5ccc(Cl)cc5)ccc4c3=O)cn2)C1 = 1.1
O=c1c2ccc(-c3ccc(Cl)cc3)cc2cnn1-c1ccc(N2CC[C@H](N3CCCC3)C2)nc1 = 1.6
CN(C)[C@H]1CCN(c2ccc(-n3ncc4cc(-c5ccc(C(F)(F)F)cc5)sc4c3=O)cn2)C1 = 4.4

P = CN(C)[C@@H]1CCN(c2ccc(-n3ncc4cc(-c5ccc(Cl)cc5)ccc4c3=O)cn2)C1
Q = CN(C)[C@H]1CCN(c2ccc(-n3ncc4cc(-c5ccc(C(F)(F)F)cc5)n(C)c4c3=O)cn2)C1
R = CCc1ccc(-c2cc3cnn(-c4ccc(N5CC[C@@H](NC)C5)nc4)c(=O)c3s2)cc1
S = CN[C@H]1CCN(c2ccc(-n3ncc4cc(-c5ccc(C(F)(F)F)cc5)ccc4c3=O)cn2)C1
Data request: Please give the order of these molecules when sorted by Ki, largest value leading. Reply with the item labels sorted in the order that was asked for.
Data returned: Q, S, R, P

A = CN[C@H]1CCN(c2ccc(-n3ncc4cc(-c5ccc(Cl)cc5)ccc4c3=O)cn2)C1
B = CN[C@H]1CCN(c2ccc(-n3ncc4cc(-c5ccc(F)cc5)sc4c3=O)cn2)C1
C = CN[C@@H]1CCN(c2ccc(-n3ncc4cc(-c5ccc(C(F)(F)F)cc5)ccc4c3=O)cn2)C1
Data request: Please give the order of these molecules when sorted by Ki, largest value leading. Reply with the item labels sorted in the order that was asked for.
Data returned: C, B, A
(C: 10 nM, B: 2 nM, A: 1.2 nM)

A = CN[C@@H]1CCN(c2ccc(-n3ncc4cc(-c5ccc(Cl)cc5)ccc4c3=O)cn2)C1
B = CN[C@H]1CCN(c2ccc(-n3ncc4cc(-c5ccc(C(F)(F)F)cc5)sc4c3=O)cn2)C1
Data request: Which one would you say has the larger Ki value: A , or B ? // caller expects the label of the chosen entry
Data returned: B
(B: 3.1 nM, A: 1.5 nM)

P = CN[C@@H]1CCN(c2ccc(-n3ncc4cc(-c5ccc(C(F)(F)F)cc5)sc4c3=O)cn2)C1
Q = CCN[C@H]1CCN(c2ccc(-n3ncc4cc(-c5ccc(Cl)cc5)ccc4c3=O)cn2)C1
Data request: Which one would you say has the larger Ki value: P , or Q ? // caller expects the label of the chosen entry
Data returned: P
(P: 3.3 nM, Q: 1.9 nM)

###

test: Intrinsic clearance in human liver microsomes; type: ADME, Microsome
MEASURED QUANTITY: CLint scaled (mL/min/kg)

Here are 6 compounds together with their reported answers.
CN(C)[C@H]1CCN(c2ccc(-n3ncc4cc(-c5ccc(Cl)cc5)ccc4c3=O)cn2)C1 = 12
CN[C@H]1CCN(c2ccc(-n3ncc4cc(-c5ccc(Cl)cc5)ccc4c3=O)cn2)C1 = 8.9
CN(C)[C@@H]1CCN(c2ccc(-n3ncc4cc(-c5ccc(Cl)cc5)ccc4c3=O)cn2)C1 = 21
CCN[C@H]1CCN(c2ccc(-n3ncc4cc(-c5ccc(Cl)cc5)ccc4c3=O)cn2)C1 = 9.2
CN[C@@H]1CCN(c2ccc(-n3ncc4cc(-c5ccc(Cl)cc5)ccc4c3=O)cn2)C1 = 12
O=c1c2ccc(-c3ccc(Cl)cc3)cc2cnn1-c1ccc(N2CC[C@H](N3CCCC3)C2)nc1 = 16

I = CN[C@@H]1CCN(c2ccc(-n3ncc4cc(-c5ccc(C(F)(F)F)cc5)ccc4c3=O)cn2)C1
II = CN(C)[C@H]1CCN(c2ccc(-n3ncc4cc(-c5ccc(C(F)(F)F)cc5)oc4c3=O)cn2)C1
III = CCc1ccc(-c2cc3cnn(-c4ccc(N5CC[C@@H](NC)C5)nc4)c(=O)c3s2)cc1
Data request: Put these in order: smallest CLint scaled first, largest last. Reply with the item labels sorted in the order that was asked for.
Data returned: I, II, III

###

test: Clearance in Sprague-Dawley rat at 10 mg/kg, po and 2.5 mg/kg, iv; assay type: ADME, organism-based; details: in vivo
MEASURED QUANTITY: clearance (mL/min/kg)

I = CN[C@@H]1CCN(c2ccc(-n3ncc4cc(-c5ccc(C(F)(F)F)cc5)sc4c3=O)cn2)C1
II = CN[C@H]1CCN(c2ccc(-n3ncc4cc(-c5ccc(Cl)cc5)ccc4c3=O)cn2)C1
Data request: Which one would you say has the larger clearance value: I , or II ? // caller expects the label of the chosen entry
Data returned: II

###

assay: AUC in Sprague-Dawley rat at 10 mg/kg, po; format: ADME, organism-based; parameters: dose 10 mg/kg, route oral; conditions: plasma
MEASURED QUANTITY: AUC (ng·h/mL)

1 = CN[C@H]1CCN(c2ccc(-n3ncc4cc(-c5ccc(Cl)cc5)ccc4c3=O)cn2)C1
2 = CN[C@@H]1CCN(c2ccc(-n3ncc4cc(-c5ccc(C(F)(F)F)cc5)sc4c3=O)cn2)C1
Data request: // pick min by AUC: 1 , 2 // caller expects the label of the chosen entry
Data returned: 1

###

experiment: Half life in Sprague-Dawley rat at 10 mg/kg, po and 2.5 mg/kg, iv; type: ADME, organism-based; conditions: in vivo
MEASURED QUANTITY: half-life (h)

CN[C@@H]1CCN(c2ccc(-n3ncc4cc(-c5ccc(C(F)(F)F)cc5)sc4c3=O)cn2)C1 = 11
CN[C@H]1CCN(c2ccc(-n3ncc4cc(-c5ccc(Cl)cc5)ccc4c3=O)cn2)C1 = 9.4

###

biological target: Melanin-concentrating hormone receptor 1 (Rattus norvegicus); assay: Activity at chimeric rat/human MCH1R by accumulation of GTPgammaS
MEASURED QUANTITY: IC50 (nM)

CN[C@H]1CCN(c2ccc(-n3ncc4cc(-c5ccc(Cl)cc5)ccc4c3=O)cn2)C1 = 8.5
CN[C@@H]1CCN(c2ccc(-n3ncc4cc(-c5ccc(C(F)(F)F)cc5)sc4c3=O)cn2)C1 = 7.7

###

target: Voltage-gated inwardly rectifying potassium channel KCNH2 (Homo sapiens)
Sequence (Q12809 whole entry): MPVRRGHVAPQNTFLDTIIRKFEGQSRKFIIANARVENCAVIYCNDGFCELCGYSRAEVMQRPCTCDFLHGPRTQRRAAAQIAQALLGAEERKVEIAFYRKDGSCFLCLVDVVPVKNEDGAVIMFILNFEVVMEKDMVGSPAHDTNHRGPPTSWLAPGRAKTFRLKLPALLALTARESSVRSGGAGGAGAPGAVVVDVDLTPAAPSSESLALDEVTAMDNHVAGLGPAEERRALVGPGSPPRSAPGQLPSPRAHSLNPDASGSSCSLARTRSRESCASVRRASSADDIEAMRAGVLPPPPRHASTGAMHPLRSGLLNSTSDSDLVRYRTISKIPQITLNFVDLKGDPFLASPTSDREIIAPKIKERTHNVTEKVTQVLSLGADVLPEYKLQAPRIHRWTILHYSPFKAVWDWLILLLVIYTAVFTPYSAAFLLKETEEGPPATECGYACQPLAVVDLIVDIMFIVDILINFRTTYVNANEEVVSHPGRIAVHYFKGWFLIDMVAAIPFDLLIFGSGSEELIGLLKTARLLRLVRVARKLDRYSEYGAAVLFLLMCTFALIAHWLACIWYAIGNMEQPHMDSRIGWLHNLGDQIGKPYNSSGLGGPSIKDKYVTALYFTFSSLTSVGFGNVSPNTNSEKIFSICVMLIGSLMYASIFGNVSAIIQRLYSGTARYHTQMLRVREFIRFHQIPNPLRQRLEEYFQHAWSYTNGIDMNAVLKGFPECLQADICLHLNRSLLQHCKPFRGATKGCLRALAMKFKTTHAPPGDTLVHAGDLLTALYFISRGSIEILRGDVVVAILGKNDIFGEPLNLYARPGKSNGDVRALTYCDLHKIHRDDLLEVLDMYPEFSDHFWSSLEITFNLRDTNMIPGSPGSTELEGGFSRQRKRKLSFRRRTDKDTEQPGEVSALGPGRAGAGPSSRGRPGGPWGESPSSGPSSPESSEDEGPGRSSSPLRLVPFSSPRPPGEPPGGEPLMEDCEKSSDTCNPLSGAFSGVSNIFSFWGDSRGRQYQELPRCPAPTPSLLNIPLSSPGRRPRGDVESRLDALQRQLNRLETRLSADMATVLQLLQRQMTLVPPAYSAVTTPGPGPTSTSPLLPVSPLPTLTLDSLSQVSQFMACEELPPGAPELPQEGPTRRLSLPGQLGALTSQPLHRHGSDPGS
MEASURED QUANTITY: Ki (nM)
Reply with just the number (in nM).

// Ki (Voltage-gated inwardly rectifying potassium channel KCNH2 (Homo sapiens)) for CNC1CCN(c2ccc(NC(=O)c3ccc(-c4ccccc4)cc3)cn2)C1 (stereo unspecified) = 200

###

assay: Volume of distribution in Sprague-Dawley rat at 10 mg/kg, po and 2.5 mg/kg, iv; format: ADME, organism-based; conditions: in vivo, read-out: Vdss
MEASURED QUANTITY: Vd (L/kg)

A = CN[C@@H]1CCN(c2ccc(-n3ncc4cc(-c5ccc(C(F)(F)F)cc5)sc4c3=O)cn2)C1
B = CN[C@H]1CCN(c2ccc(-n3ncc4cc(-c5ccc(Cl)cc5)ccc4c3=O)cn2)C1
Data request: Which one would you say has the larger Vd value: A , or B ? // caller expects the label of the chosen entry
Data returned: B

The reported measurements were obtained from ChEMBL document CHEMBL1138061.
